# ASSAY_TARGET: Alpha-glucosidase MAL12 (Saccharomyces cerevisiae S288c, UniProt P53341)
# Sequence (P53341 whole entry): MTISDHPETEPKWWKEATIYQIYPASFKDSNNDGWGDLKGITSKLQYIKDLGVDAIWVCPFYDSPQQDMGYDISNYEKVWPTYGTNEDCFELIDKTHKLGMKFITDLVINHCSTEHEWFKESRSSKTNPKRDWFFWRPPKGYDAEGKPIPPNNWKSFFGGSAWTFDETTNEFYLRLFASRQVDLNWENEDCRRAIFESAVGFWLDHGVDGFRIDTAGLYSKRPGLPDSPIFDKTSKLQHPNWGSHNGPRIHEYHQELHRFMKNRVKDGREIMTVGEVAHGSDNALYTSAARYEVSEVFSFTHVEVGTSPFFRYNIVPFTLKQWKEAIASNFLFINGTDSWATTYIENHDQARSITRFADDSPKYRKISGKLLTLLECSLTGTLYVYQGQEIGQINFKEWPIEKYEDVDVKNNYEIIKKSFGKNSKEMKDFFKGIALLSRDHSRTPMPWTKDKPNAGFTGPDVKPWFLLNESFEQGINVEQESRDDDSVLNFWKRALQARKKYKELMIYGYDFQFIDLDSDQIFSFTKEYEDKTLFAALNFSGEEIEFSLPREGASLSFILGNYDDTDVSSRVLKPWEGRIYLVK
# ASSAY_SUMMARY: Inhibition of Saccharomyces cerevisiae alpha-glucosidase using p-nitrophenyl-alpha-D-glucopyranoside as substrate preincubated for 10 mins measured after 30 mins
# CONDITION_INFO: read-out: IC50
IC50 vs 40 µM: less than gives Criterion met; not less than gives Criterion not met.

COMPOUND_STRING	ASSAY_TARGET	CLASS_NAME
O=C(N/N=C1/c2ccccc2-c2nc3ccccc3nc21)c1ccc(O)cc1	Alpha-glucosidase MAL12 (Saccharomyces cerevisiae S288c, UniProt P53341)	Criterion not met
O=C(N/N=C1/c2ccccc2-c2nc3ccccc3nc21)c1ccccc1Cl	Alpha-glucosidase MAL12 (Saccharomyces cerevisiae S288c, UniProt P53341)	Criterion met
O=C(N/N=C1/c2ccccc2-c2nc3ccccc3nc21)c1cccc(Cl)c1	Alpha-glucosidase MAL12 (Saccharomyces cerevisiae S288c, UniProt P53341)	Criterion not met
O=C(N/N=C1/c2ccccc2-c2nc3ccccc3nc21)c1cccc(I)c1	Alpha-glucosidase MAL12 (Saccharomyces cerevisiae S288c, UniProt P53341)	Criterion not met
O=C(N/N=C1/c2ccccc2-c2nc3ccccc3nc21)c1ccc(Br)cc1	Alpha-glucosidase MAL12 (Saccharomyces cerevisiae S288c, UniProt P53341)	Criterion met
O=C(N/N=C1/c2ccccc2-c2nc3ccccc3nc21)c1cccc(Br)c1	Alpha-glucosidase MAL12 (Saccharomyces cerevisiae S288c, UniProt P53341)	Criterion not met
O=C(N/N=C1/c2ccccc2-c2nc3ccccc3nc21)c1ccccc1[N+](=O)[O-]	Alpha-glucosidase MAL12 (Saccharomyces cerevisiae S288c, UniProt P53341)	Criterion met
O=C(N/N=C1/c2ccccc2-c2nc3ccccc3nc21)c1ccc(I)cc1	Alpha-glucosidase MAL12 (Saccharomyces cerevisiae S288c, UniProt P53341)	Criterion met
O=C(N/N=C1/c2ccccc2-c2nc3ccccc3nc21)c1ccc(Cl)cc1	Alpha-glucosidase MAL12 (Saccharomyces cerevisiae S288c, UniProt P53341)	Criterion not met
O=C(N/N=C1/c2ccccc2-c2nc3ccccc3nc21)c1cccc(F)c1	Alpha-glucosidase MAL12 (Saccharomyces cerevisiae S288c, UniProt P53341)	Criterion not met
O=C(N/N=C1/c2ccccc2-c2nc3ccccc3nc21)c1ccc([N+](=O)[O-])cc1	Alpha-glucosidase MAL12 (Saccharomyces cerevisiae S288c, UniProt P53341)	Criterion met
c1ccc2c(c1)/C(=N/N=C1\c3ccccc3-c3nc4ccccc4nc31)c1nc3ccccc3nc1-2	Alpha-glucosidase MAL12 (Saccharomyces cerevisiae S288c, UniProt P53341)	Criterion met
Nc1ccccc1C(=O)N/N=C1/c2ccccc2-c2nc3ccccc3nc21	Alpha-glucosidase MAL12 (Saccharomyces cerevisiae S288c, UniProt P53341)	Criterion not met
O=C(N/N=C1/c2ccccc2-c2nc3ccccc3nc21)c1ccc(F)cc1	Alpha-glucosidase MAL12 (Saccharomyces cerevisiae S288c, UniProt P53341)	Criterion not met
Cc1ccc(C(=O)N/N=C2/c3ccccc3-c3nc4ccccc4nc32)cc1	Alpha-glucosidase MAL12 (Saccharomyces cerevisiae S288c, UniProt P53341)	Criterion not met
O=C1c2ccccc2-c2nc3ccccc3nc21	Alpha-glucosidase MAL12 (Saccharomyces cerevisiae S288c, UniProt P53341)	Criterion not met
O=C(N/N=C1/c2ccccc2-c2nc3ccccc3nc21)c1ccccc1Br	Alpha-glucosidase MAL12 (Saccharomyces cerevisiae S288c, UniProt P53341)	Criterion met
